Every entry's value here was drawn from the supplement of paper PMC3334620.

Target: Ylr278c (UniProt Q05854)
Sequence (Q05854 whole entry): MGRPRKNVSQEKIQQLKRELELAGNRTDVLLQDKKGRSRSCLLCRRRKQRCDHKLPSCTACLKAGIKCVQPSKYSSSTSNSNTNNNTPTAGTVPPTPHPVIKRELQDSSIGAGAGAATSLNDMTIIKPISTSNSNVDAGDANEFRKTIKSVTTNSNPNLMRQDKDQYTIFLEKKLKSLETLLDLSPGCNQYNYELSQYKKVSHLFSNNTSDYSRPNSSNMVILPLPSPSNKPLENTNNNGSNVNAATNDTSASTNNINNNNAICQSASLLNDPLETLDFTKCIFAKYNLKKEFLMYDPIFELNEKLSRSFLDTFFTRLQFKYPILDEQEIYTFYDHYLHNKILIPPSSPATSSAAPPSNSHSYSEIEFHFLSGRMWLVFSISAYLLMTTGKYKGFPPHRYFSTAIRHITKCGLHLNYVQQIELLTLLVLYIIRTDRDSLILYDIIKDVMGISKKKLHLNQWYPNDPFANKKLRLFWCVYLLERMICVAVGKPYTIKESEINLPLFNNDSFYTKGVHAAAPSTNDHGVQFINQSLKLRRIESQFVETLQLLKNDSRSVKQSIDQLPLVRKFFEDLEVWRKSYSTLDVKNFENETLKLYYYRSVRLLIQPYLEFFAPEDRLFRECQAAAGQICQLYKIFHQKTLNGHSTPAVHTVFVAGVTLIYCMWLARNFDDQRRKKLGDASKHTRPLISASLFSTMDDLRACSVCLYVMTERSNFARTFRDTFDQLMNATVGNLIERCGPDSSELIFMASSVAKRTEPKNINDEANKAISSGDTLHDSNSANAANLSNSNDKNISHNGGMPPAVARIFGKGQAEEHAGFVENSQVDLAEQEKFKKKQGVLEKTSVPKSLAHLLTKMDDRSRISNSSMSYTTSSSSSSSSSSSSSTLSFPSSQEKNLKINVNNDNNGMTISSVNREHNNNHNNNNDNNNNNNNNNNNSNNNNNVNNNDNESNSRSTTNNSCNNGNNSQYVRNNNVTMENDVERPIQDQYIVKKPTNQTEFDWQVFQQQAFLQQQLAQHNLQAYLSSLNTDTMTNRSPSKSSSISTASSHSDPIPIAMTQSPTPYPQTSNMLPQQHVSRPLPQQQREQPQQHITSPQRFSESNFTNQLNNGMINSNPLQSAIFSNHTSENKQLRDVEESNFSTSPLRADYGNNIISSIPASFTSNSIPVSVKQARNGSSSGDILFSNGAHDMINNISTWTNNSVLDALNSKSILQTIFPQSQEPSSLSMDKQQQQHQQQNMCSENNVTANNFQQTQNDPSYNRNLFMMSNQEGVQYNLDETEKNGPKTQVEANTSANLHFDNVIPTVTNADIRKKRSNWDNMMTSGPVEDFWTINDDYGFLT
Assay: PBM E-score (8-mer binding enrichment) (E-score (-0.5 to 0.5)); higher = stronger / more preferred TF binding
Settings: protein concentration: 200 nM; construct: GST-DNA-binding domain
Whole data set: some 33,000 sequences, median “E-score (-0.5 to 0.5)” near -0.054, cut for the highest 2% near 0.39. The entries come from a sample that favours the highest values as a whole.
PROPERTY: PBM E-score
Lab note: record just the number, no unit beside it.

// known answers, use as guide
GATGGGGC | -0.023
CCCAACCG | -0.0967
ATAAGTTA | -0.103
CACTCCAC | -0.139
CTAACAAC | -0.0734
AGGCCACG | -0.0792
GAAATGAC | -0.0184
AATTCCCA | -0.035
AATTCCCT | -0.103
AACTCCGG | 0.497

Report PBM E-score on Ylr278c (UniProt Q05854) for this entry: AATTCCCG 0.345

Consider the sequence GATTCCGC tested on Ylr278c (UniProt Q05854); state its PBM E-score. 0.355

Tell me its PBM E-score on Ylr278c (UniProt Q05854): ACTAAGGG -0.0488

Name the recorded PBM E-score of AATTCCTG , assay system Ylr278c (UniProt Q05854). 0.0336

Give Ylr278c (UniProt Q05854) PBM E-score for the following sequence: GCTACCCA -0.196

Under Ylr278c (UniProt Q05854), report PBM E-score for GCCTAGCA -0.245

# return PBM E-score for ATGCAAGA , test system: Ylr278c (UniProt Q05854) -0.214

# return PBM E-score for CCAAAGCA , test system: Ylr278c (UniProt Q05854) -0.107

Send back Ylr278c (UniProt Q05854) PBM E-score of AATTCCGC only. 0.456

Would you please give the reported PBM E-score of ATACGATA with Ylr278c (UniProt Q05854)? -0.118

Consider the sequence CACTCCCA tested on Ylr278c (UniProt Q05854); state its PBM E-score. -0.106

Report the value of PBM E-score obtained on Ylr278c (UniProt Q05854) for CCACTTCC . 0.0941

----------
Biological target: Ylr278c (UniProt Q05854)
Assay: PBM E-score (8-mer binding enrichment) (E-score (-0.5 to 0.5)); higher = stronger / more preferred TF binding
Conditions: protein concentration: 200 nM; construct: GST-DNA-binding domain
Whole data set: some 33,000 sequences, median “E-score (-0.5 to 0.5)” near -0.054, cut for the highest 2% near 0.39. What follows is part of a selection rich in the highest values, with near analogues and random picks from the rest.
PROPERTY: PBM E-score
Give a plain numeric answer without units written out.

Entry ACGACGCG needs its PBM E-score filled in; supply it. 0.0212

----------
Target: Ylr278c (UniProt Q05854)
Assay: PBM E-score (8-mer binding enrichment) (E-score (-0.5 to 0.5)); higher = stronger / more preferred TF binding
Conditions: protein concentration: 200 nM; construct: GST-DNA-binding domain
The full ranking holds about 33,000 sequences; the median of “E-score (-0.5 to 0.5)” is about -0.054, and the highest 2% start at about 0.39. Shown is part of a subset that was picked to be rich in the highest values.
Outcome: label 1 for PBM E-score of at least -0.0004; label 0 for anything lower.

CGCCAGAC | label 0
AAGTCCGG | label 1
AAGTCCAG | label 0
ACGTCCGC | label 1
AAGTCCAT | label 0
GTGTACGA | label 0

Determine whether this sequence has PBM E-score no lower than -0.0004: AACGGACT label 1

Could you verify whether the entry CTCACCTC shows PBM E-score of no less than -0.0004? label 0

Is reported PBM E-score greater than or equal to -0.0004 here: ATAGAGAC label 0

Check the entry GCTACAAA : does PBM E-score equal or exceed -0.0004? label 0

Test whether the sequence AAGTCCTG records PBM E-score of -0.0004 or higher. label 0
